Field: % NleB1 inhibition (µM compound) / 40. Provide a value for each of the compounds that follow.
Target: NleB1 (Escherichia coli, UniProt Q8XBX8)
Construct: GST-EHEC-NleB1 in pET42a (GST/His tagged), expressed in E. coli BL21 (DE3), nickel purified; some tag cleavage noted
Settings: 40 µM; inhibitor
Phrase the answer as number then unit, nothing more needed.

Measured on NleB1 (Escherichia coli, UniProt Q8XBX8), O=C(Oc1ccc([N+](=O)[O-])cc1)O[C@H]1CC[C@@]23CCCN2C(=O)CCC[C@H]3[C@H]1Cc1ccccc1 [KUC112275N] has a documented % NleB1 inhibition (µM compound) / 40 of 11.0%

With NleB1 (Escherichia coli, UniProt Q8XBX8) as the test system, CCC[C@H]1[C@@H](OC(=O)NCc2ccc(OC)cc2)CC[C@@]23CCCN2C(=O)CCC[C@@H]13 [KUC112136N] showed % NleB1 inhibition (µM compound) / 40 of 20.8%

NleB1 (Escherichia coli, UniProt Q8XBX8) assay, compound Cc1ccc2c(c1)C1CS(=O)(=O)N(C3CCCC3)C(=O)N1C2 (centres unmarked) [KUC109525N] , recorded % NleB1 inhibition (µM compound) / 40 = 20.9%

Observed % NleB1 inhibition (µM compound) / 40, NleB1 (Escherichia coli, UniProt Q8XBX8), O=C(Cn1cc(COc2c(F)c(F)cc(F)c2F)nn1)c1ccc(O)cc1 [KUC104092N] : 57.8%

// compound CCCCCCCCN1[C@@H](CC(=O)OC)c2cc(F)ccc2S1(=O)=O [KUC101907N] , assay NleB1 (Escherichia coli, UniProt Q8XBX8), % NleB1 inhibition (µM compound) / 40 value: 22.4%

With NleB1 (Escherichia coli, UniProt Q8XBX8) as the test system, O=C(Cn1cc(COc2cccc([N+](=O)[O-])c2)nn1)c1ccc(O)cc1 [KUC104086N] showed % NleB1 inhibition (µM compound) / 40 of 34.2%

Readout % NleB1 inhibition (µM compound) / 40 for CCCCCCC(=O)N1C/C=C\C(c2ccc(OC)cc2)N(Cc2ccc(F)cc2)C(=O)[C@@H]1Cc1ccccc1 (some centres unmarked) [KUC101608N] , test system NleB1 (Escherichia coli, UniProt Q8XBX8), was 23.2%

Response field % NleB1 inhibition (µM compound) / 40 (NleB1 (Escherichia coli, UniProt Q8XBX8)) for item O=C1CS(=O)(=O)N(Cc2cccc(F)c2)c2ccc(Br)cc21 [KUC103319N] : 49.0%

###

Molecular target: NleB1 (Escherichia coli, UniProt Q8XBX8)
Construct: GST-EHEC-NleB1 in pET42a (GST/His tagged), expressed in E. coli BL21 (DE3), nickel purified; some tag cleavage noted
Conditions: 10 µM; inhibitor
Answer class 0 if % NleB1 inhibition (µM compound) / 10 is under 30%, and class 1 if it is 30% or more.

query: Is % NleB1 inhibition (µM compound) / 10 at least 30%? Consider CCCC(=O)c1ccc(OCc2cn(CC(=O)c3ccc(O)cc3)nn2)cc1 [KUC104099N]
result: class 1

query: Test whether the molecule O=C(c1ccc(F)cc1)N1CCCC2(CC(c3cccc(Cl)c3)=CO2)C1 (stereo not shown) [KUC111570N] records % NleB1 inhibition (µM compound) / 10 of 30% or higher.
result: class 0

query: Form field: % NleB1 inhibition (µM compound) / 10 at least 30%? Entry: CCC(=O)c1ccc(OCc2cn(CC(=O)c3ccc(O)cc3)nn2)cc1 [KUC104108N]
result: class 0

query: I'd appreciate it if you could say whether O=C1CCN(S(=O)(=O)c2ccccc2)CCN1CCOCc1ccc(Cl)cc1 [KUC100988N] has % NleB1 inhibition (µM compound) / 10 at least equal to 30%.
result: class 1

query: Could you please find out whether CN(C)CCN1CCN(C2CN(Cc3cn(Cc4ccc(F)cc4)nn3)S(=O)(=O)C2)CC1 (stereo not shown) [KUC108117N] has % NleB1 inhibition (µM compound) / 10 that meets 30% or exceeds it?
result: class 0

query: Threshold query (% NleB1 inhibition (µM compound) / 10 >= 30%) on COc1cccc(N2[C@@H](CC(=O)O)c3ccc(/C=C/C(=O)O)cc3S2(=O)=O)c1 [KUC102262N]
result: class 0

query: Determine whether measured % NleB1 inhibition (µM compound) / 10 meets or exceeds 30% for CC(=O)Nc1ccc(OCc2cn(CC(=O)c3ccc(O)cc3)nn2)cc1 [KUC104101N]
result: class 1

query: Reported % NleB1 inhibition (µM compound) / 10 at or above 30%? C[C@@H]1CCCN1c1ccc2c(c1)O[C@@H]1CCN(C1)S2(=O)=O [KUC111139N]
result: class 1

query: # bool: % NleB1 inhibition (µM compound) / 10 of COc1ccc(-c2ccc(CN3C(C(C)C)C(=O)N(Cc4cn(CCC5OCCO5)nn4)CCS3(=O)=O)cc2)cn1 (stereo not shown) [KUC105137N] >= 30%
result: class 0

query: Quick check, % NleB1 inhibition (µM compound) / 10 >= 30%? COCOCCn1cc(CN2CCS(=O)(=O)N(Cc3ccc(-c4ccc(F)nc4)cc3)C(CC(C)C)C2=O)nn1 (stereo not shown) [KUC105149N]
result: class 1

query: Please indicate if the recorded % NleB1 inhibition (µM compound) / 10 for CC(=O)c1ccc(OCc2cn(CC(=O)c3ccc(O)cc3)nn2)c(F)c1 [KUC104088N] meets or exceeds 30%.
result: class 1

query: Given C[C@@H](NS(=O)(=O)c1cc(Cl)ccc1F)[C@H](O)c1ccccc1 [KUC103993N] , state whether its % NleB1 inhibition (µM compound) / 10 is at least 30%.
result: class 0

query: Exam item: decide whether the reported % NleB1 inhibition (µM compound) / 10 for COc1ccc2cc([C@H](C)C(=O)OCc3cn(CC(=O)c4ccc(O)cc4)nn3)ccc2c1 [KUC104115N] is at least 30%.
result: class 1

query: Item O=C1CCC[C@@H]2Cc3nc4ccc(O)cc4cc3[C@@H]3CCN1[C@H]23 [KUC103038N] with % NleB1 inhibition (µM compound) / 10 of 30% or above?
result: class 0

query: Given COc1ccc(OCc2cn(CC(=O)c3ccc(O)cc3)nn2)cc1 [KUC104109N] , state whether its % NleB1 inhibition (µM compound) / 10 is at least 30%.
result: class 1

query: Can C=CCN1CC[C@@H](O)C(=C)S1(=O)=O [KUC103094N] be said to have % NleB1 inhibition (µM compound) / 10 at or above 30%?
result: class 0

query: Given the entry O=C1CN(Cc2ccccc2)S(=O)(=O)c2ccccc21 [KUC101184N] , answer whether its % NleB1 inhibition (µM compound) / 10 meets or surpasses 30%.
result: class 0

query: Check if % NleB1 inhibition (µM compound) / 10 >= 30% (inclusive). Item: CCCCCCCCN1[C@@H](CC(=O)OC)c2cc(F)ccc2S1(=O)=O [KUC101907N]
result: class 0

query: API: above_or_equal(metric=% NleB1 inhibition (µM compound) / 10, cutoff=30%) for item O=C(Cn1cc(COc2cccc([N+](=O)[O-])c2)nn1)c1ccc(O)cc1 [KUC104086N]
result: class 0

query: Say whether COc1ccc(C(CCN2CCOCC2)c2c(OC)cc(OC)c3c2OC(=O)CC3c2ccc(OC)cc2)cc1 (stereo not shown) [KUC101459N] shows % NleB1 inhibition (µM compound) / 10 of 30% or more.
result: class 0

query: Check if % NleB1 inhibition (µM compound) / 10 >= 30% (inclusive). Item: C[C@@H]1NC(=O)O[C@H]1c1ccco1 [KUC103195N]
result: class 0

query: Check if % NleB1 inhibition (µM compound) / 10 >= 30% (inclusive). Item: CC1C(=O)N(Cc2cn(CCC3OCCCO3)nn2)CCS(=O)(=O)N1Cc1ccc(-c2cccc(N(C)C)c2)cc1 (stereo not shown) [KUC104889N]
result: class 0

query: Check the entry O=S1(=O)CC(N2CCN(Cc3ccccc3F)CC2)CN1Cc1cn(Cc2cccc(Cl)c2)nn1 (stereo not shown) [KUC108236N] : does % NleB1 inhibition (µM compound) / 10 equal or exceed 30%?
result: class 0

query: Does the reported % NleB1 inhibition (µM compound) / 10 for CCCCCC(=O)N1C[C@H](n2cc(COC(=O)c3ccccc3)nn2)[C@@H](O)C[C@@H]1c1ccc(Cl)cc1 [KUC105040N] fall at or above the 30% mark?
result: class 0

query: # bool: % NleB1 inhibition (µM compound) / 10 of C[C@H]1CC[C@]2(CCC(=O)N2CCCOC(=O)c2ccccc2)CC1 [KUC110967N] >= 30%
result: class 1

query: hey, is % NleB1 inhibition (µM compound) / 10 for this one >= 30%? CN1CCC(N2CCN(C3CN(Cc4cn(Cc5cccc(Cl)c5)nn4)S(=O)(=O)C3)CC2)CC1 (stereo not shown) [KUC108133N]
result: class 0

query: Given the entry O=C(Cn1cc(COc2c(F)c(F)cc(F)c2F)nn1)c1ccc(O)cc1 [KUC104092N] , answer whether its % NleB1 inhibition (µM compound) / 10 meets or surpasses 30%.
result: class 1

query: Given COC(=O)[C@H](C(C)C)N1Cc2nnn(Cc3ccccc3)c2-c2ccccc2S1(=O)=O [KUC110604N] , state whether its % NleB1 inhibition (µM compound) / 10 is at least 30%.
result: class 0

query: Given the entry Cc1ccc2c(c1)C1CS(=O)(=O)N(C3CCCC3)C(=O)N1C2 (stereo not shown) [KUC109525N] , answer whether its % NleB1 inhibition (µM compound) / 10 meets or surpasses 30%.
result: class 0

query: Evaluate CCCCCCCCN1[C@@H](CC(=O)OC)c2ccc(/C=C/C(=O)OC)cc2S1(=O)=O [KUC102268N] : % NleB1 inhibition (µM compound) / 10 at minimum 30%?
result: class 0

query: Reported % NleB1 inhibition (µM compound) / 10 reaches at least 30% for Cc1ccc([C@H]2CC[C@]3(CCC(=O)N3CCOC(=O)Nc3cccc(C#N)c3)CC2)cc1 [KUC111012N] ?
result: class 0

query: Could you tell me if the measured % NleB1 inhibition (µM compound) / 10 of O=C1CS(=O)(=O)N(Cc2cccc(F)c2)c2ccc(Br)cc21 [KUC103319N] reaches 30% or more?
result: class 1
